- Tested on: Tyrosine-protein kinase ABL1 (Homo sapiens), P00519 [H396P]
- CONDITION_INFO: at 1 µM
Returns YES if the recorded inhibition is greater than or equal to 5%, and NO otherwise.

COMPOUND: CN(C)CCNC(=O)Nc1ccc(N(C)c2ccnc(Nc3ccc(CS(C)(=O)=O)cc3)n2)cc1
ASSIGNED_CLASS: YES
//
COMPOUND: CS(=O)(=O)CCNCc1ccc(-c2ccc3ncnc(Nc4ccc(OCc5ccccc5)cc4)c3c2)o1
ASSIGNED_CLASS: YES
//
COMPOUND: CN(c1ccc(NC(=O)NCCN2CCOCC2)cc1)c1ccnc(Nc2ccc(CS(C)(=O)=O)cc2)n1
ASSIGNED_CLASS: YES

# ---- query compound ----
Prompt: Exam item: decide whether the reported inhibition for CC1=C(C(=O)Nc2ccc3[nH]nc(C)c3c2)C(c2ccc(C(F)(F)F)cc2)CC(=O)N1 (centres undefined) is at least 5%.
Completion: NO

---

- ASSAYED_TARGET: Fibroblast growth factor receptor 1 (Homo sapiens) (UniProt P11362)
- Sequence (P11362 22-822 limits assumed): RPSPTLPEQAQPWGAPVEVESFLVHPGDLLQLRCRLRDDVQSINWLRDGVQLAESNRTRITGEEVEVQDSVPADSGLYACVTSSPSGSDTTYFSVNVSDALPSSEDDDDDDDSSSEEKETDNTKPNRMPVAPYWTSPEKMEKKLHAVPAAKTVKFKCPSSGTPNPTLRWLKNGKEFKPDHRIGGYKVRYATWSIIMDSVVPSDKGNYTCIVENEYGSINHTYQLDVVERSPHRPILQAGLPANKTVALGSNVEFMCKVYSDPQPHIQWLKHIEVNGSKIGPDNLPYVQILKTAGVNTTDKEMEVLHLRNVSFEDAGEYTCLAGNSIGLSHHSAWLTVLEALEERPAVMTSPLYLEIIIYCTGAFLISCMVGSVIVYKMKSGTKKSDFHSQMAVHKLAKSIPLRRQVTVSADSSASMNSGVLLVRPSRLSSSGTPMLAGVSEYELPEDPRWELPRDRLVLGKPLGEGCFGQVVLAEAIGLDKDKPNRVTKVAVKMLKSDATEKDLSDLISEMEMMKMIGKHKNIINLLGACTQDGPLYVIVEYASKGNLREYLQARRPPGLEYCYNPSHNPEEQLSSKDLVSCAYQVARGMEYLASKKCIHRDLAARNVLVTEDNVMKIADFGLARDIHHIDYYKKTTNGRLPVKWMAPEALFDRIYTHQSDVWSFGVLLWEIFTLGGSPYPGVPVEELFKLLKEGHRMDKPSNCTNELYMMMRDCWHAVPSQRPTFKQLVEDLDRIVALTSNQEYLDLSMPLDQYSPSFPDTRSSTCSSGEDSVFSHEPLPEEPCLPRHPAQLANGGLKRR
- CONDITION_INFO: at 1 µM
// reported inhibition per item
A complete answer gives the number and then names the unit.

The following compounds have reported results that may help.
INPUT_SMILES: COc1ccccc1-c1cc(/C=C2\C(=O)Nc3ncc(Br)cc32)cc(Br)c1O
MEASURED_METRIC: inhibition
MEASURED_VALUE: 14%

INPUT_SMILES: CCS(=O)(=O)c1ccc(OC)c(Nc2ncc(-c3cccc(C(C)=O)c3)o2)c1
MEASURED_METRIC: inhibition
MEASURED_VALUE: 12.9%

INPUT_SMILES: FC(F)(F)CNc1nccc(-c2cnn3ncccc23)n1
MEASURED_METRIC: inhibition
MEASURED_VALUE: 2.89%

INPUT_SMILES: c1cnn2ncc(-c3ccnc(NCCCN4CCOCC4)n3)c2c1
MEASURED_METRIC: inhibition
MEASURED_VALUE: 2.22%

As a next step, examine the compound that follows.
Prompt: // map COc1cc2c(cc1Nc1nc(Nc3cccc(F)c3C(N)=O)c3cc[nH]c3n1)N(C(=O)CN1CCN(C(C)C)CC1)CC2 to recorded inhibition (system: Fibroblast growth factor receptor 1 (Homo sapiens) (UniProt P11362));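 note: values are the mean percent inhibition of FGFR1 across replicate measurements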
Completion: 2.78%

---

- ASSAYED_TARGET: Phosphatidylinositol 4,5-bisphosphate 3-kinase catalytic subunit delta isoform (Homo sapiens);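 note: reported values are mean percent inhibition of PI3K-delta activity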
- CONDITION_INFO: at 1 µM
MEASURED_METRIC: inhibition (%)
Write the number in % without appending the unit.

MOLECULE: CC1=C(C(=O)Nc2ccc3[nH]nc(C)c3c2)C(c2ccc(C(F)(F)F)cc2)CC(=O)N1 (stereo not given)
inhibition (%): 3.84

MOLECULE: CCCNc1cccc(-n2ncc3c(N/N=C/c4ccncc4)ncnc32)c1
inhibition (%): 14.7

MOLECULE: CN1CCC(n2cnc(-c3ccc(F)cc3)c2-c2ccnc(NCCO)n2)CC1
inhibition (%): 2.25

MOLECULE: CS(=O)(=O)CCNCc1ccc(-c2ccc3ncnc(Nc4ccc(OCc5ccccc5)cc4)c3c2)o1
inhibition (%): 2.65

MOLECULE: Fc1ccc(Nc2nccc(-c3c(-c4ccc(C(F)(F)F)cc4)nn4ncccc34)n2)cc1F
inhibition (%): 2.86

MOLECULE: COc1ccc(-c2nn3ncccc3c2-c2ccnc(Nc3ccc(F)c(F)c3)n2)cc1
inhibition (%): 1.61

MOLECULE: COc1c(C(N)=O)cc(-c2ccc(Cl)cc2)cc1-c1ccc(S(N)(=O)=O)cc1
inhibition (%): 1.67

MOLECULE: COc1cccc(-n2ncc3c(N/N=C/c4ccc(C(=O)NCCN(C)C)cc4)ncnc32)c1
inhibition (%): 16.3

MOLECULE: CCS(=O)(=O)c1ccc(OC)c(Nc2ncc(-c3cccc(C(C)=O)c3)o2)c1
inhibition (%): -1.96

MOLECULE: COc1ccccc1-c1cc(/C=C2\C(=O)Nc3ncc(Br)cc32)cc(Br)c1O
inhibition (%): 13.9

Prompt: Name the recorded inhibition for Cc1cc(O)cc(C)c1/C=C/c1cncc(C(=O)OC(C)(C)C)c1 .
Completion: 6.21

Prompt: Record request: inhibition value, item COc1cc2c(cc1Nc1nc(Nc3cccc(F)c3C(N)=O)c3cc[nH]c3n1)N(C(=O)CN1CCN(C(C)C)CC1)CC2
Completion: -0.26

Prompt: Find the recorded inhibition belonging to O=C(O[C@H]1CN[C@H](C#Cc2cc3ncnc(Nc4ccc5c(cnn5Cc5ccccc5)c4)c3s2)C1)N1CCOCC1 and report it.
Completion: 9.02

Prompt: inhibition lookup needed for Cc1c2ccc(N(C)c3ccnc(Nc4cccc(S(N)(=O)=O)c4)n3)cc2nn1C , thanks.
Completion: 29.9

Prompt: Bench note: what inhibition did COc1ccc(Nc2ncc(-c3ccccc3)o2)cc1OC show?
Completion: 4.48

Prompt: Quick one: inhibition of Cc1cc(O)cc(C)c1/C=C/c1cncc(C(N)=O)c1 ?
Completion: 2.16

Prompt: Give its inhibition value. Item: NC(=O)c1ccc2c(-c3ccnc(NCCCO)n3)c(-c3ccc(F)cc3)nn2c1
Completion: 6.2

Prompt: Name the reported inhibition value associated with the molecule COc1cc(Nc2ncc(-c3ccccc3)o2)cc(OC)c1
Completion: 5.83

Prompt: Quick one: inhibition for CC1(C)CC(n2cnc(-c3ccc(F)cc3)c2-c2ccnc(N)n2)CC(C)(C)N1 ?
Completion: 6.91

Prompt: Report inhibition for Fc1cccc(COc2ccc(Nc3ncncc3C#Cc3ccccc3)cc2Cl)c1 please.
Completion: 1.09

---

Listed below: inhibition values for each entry.
- ASSAYED_TARGET: Tyrosine-protein kinase Tec (Homo sapiens) (UniProt P42680)
- Sequence (P42680 whole entry): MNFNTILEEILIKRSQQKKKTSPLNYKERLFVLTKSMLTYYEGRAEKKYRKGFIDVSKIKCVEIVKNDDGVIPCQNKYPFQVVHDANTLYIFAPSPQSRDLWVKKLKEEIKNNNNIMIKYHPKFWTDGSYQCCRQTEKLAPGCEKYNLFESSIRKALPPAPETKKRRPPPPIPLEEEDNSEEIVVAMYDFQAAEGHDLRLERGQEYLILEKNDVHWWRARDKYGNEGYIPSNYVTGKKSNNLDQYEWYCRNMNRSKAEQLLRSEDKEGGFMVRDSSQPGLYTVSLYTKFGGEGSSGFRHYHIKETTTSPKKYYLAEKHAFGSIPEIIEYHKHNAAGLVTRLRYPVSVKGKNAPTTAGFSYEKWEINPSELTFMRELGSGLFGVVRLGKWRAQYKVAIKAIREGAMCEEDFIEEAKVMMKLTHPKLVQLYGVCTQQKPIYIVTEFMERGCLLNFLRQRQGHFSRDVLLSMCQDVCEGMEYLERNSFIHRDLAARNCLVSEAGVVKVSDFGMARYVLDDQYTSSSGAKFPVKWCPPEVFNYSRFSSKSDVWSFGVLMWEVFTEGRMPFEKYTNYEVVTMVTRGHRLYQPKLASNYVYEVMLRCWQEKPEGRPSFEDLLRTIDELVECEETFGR
- CONDITION_INFO: at 0.1 µM
- Description: GSK_PKIS: TEC mean inhibition at 0.1 uM [Nanosyn]
Write the answer as a number in %, unit excluded.

COMPOUND: CCn1c(-c2nonc2N)nc2cncc(C(=O)NCCNC)c21
MEASURED_METRIC: inhibition
UNIT_OF_MEASURE: %
MEASURED_VALUE: 2.57

COMPOUND: CC1=C(C(=O)Nc2ccc3[nH]ncc3c2)C(c2ccc(F)cc2)N=C(c2ccc(C(F)(F)F)nc2)N1 (stereo not given)
MEASURED_METRIC: inhibition
UNIT_OF_MEASURE: %
MEASURED_VALUE: 3.03

COMPOUND: NS(=O)(=O)c1cccc(N/C=C2\C(=O)Nc3ccccc32)c1
MEASURED_METRIC: inhibition
UNIT_OF_MEASURE: %
MEASURED_VALUE: 4.94

Prompt: Which inhibition reading was recorded for the compound N#Cc1cccc(Nc2ncc(-c3ccccc3)o2)c1 ?
Completion: 1.29

Prompt: Item O=C(O[C@H]1CN[C@H](C#Cc2cc3ncnc(Nc4ccc5c(cnn5Cc5ccccc5)c4)c3s2)C1)N1CCOCC1 has what recorded inhibition?
Completion: 2.33

---

- Test system: Mast/stem cell growth factor receptor Kit (Homo sapiens), P10721 [V560G]
- Sequence (P10721 whole entry V560G): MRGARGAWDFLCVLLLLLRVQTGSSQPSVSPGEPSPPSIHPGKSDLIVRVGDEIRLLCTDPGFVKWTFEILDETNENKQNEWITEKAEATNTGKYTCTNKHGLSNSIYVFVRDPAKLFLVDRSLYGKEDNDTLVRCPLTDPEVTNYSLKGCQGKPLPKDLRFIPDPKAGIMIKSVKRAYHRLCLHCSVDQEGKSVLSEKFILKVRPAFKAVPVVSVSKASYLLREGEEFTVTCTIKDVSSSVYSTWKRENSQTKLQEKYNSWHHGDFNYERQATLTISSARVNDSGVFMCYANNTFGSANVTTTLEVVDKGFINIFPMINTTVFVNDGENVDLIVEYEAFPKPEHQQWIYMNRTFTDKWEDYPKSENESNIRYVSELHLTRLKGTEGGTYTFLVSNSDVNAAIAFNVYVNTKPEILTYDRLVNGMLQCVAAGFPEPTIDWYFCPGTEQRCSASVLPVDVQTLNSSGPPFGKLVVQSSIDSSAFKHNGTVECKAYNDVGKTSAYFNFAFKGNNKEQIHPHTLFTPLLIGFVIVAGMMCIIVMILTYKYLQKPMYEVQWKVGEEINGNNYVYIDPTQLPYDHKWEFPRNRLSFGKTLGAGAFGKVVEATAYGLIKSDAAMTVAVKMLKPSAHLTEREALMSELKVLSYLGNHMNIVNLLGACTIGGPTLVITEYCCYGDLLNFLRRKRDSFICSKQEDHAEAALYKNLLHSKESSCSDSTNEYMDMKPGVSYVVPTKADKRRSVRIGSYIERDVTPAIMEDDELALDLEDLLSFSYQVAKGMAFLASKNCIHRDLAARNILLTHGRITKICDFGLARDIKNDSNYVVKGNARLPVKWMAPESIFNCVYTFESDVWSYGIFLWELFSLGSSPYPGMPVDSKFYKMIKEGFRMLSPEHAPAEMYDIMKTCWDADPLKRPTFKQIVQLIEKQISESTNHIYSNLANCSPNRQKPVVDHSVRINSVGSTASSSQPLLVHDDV
- CONDITION_INFO: at 0.1 µM
MEASURED_METRIC: inhibition (%)
The reply should be a number in %, with the unit left off.

INPUT_SMILES: COc1cccc(-n2ncc3c(N/N=C/c4ccc(C(=O)NCCN(C)C)cc4)ncnc32)c1
ASSAYED_TARGET: Mast/stem cell growth factor receptor Kit (Homo sapiens), P10721 [V560G]
inhibition (%): 2.06

Prompt: Can you share its inhibition? I mean this compound: O=C1Nc2ccccc2/C1=C1\CCc2cc(O)ccc21
Completion: 6.44

Prompt: Requested read-out: inhibition. Entry: CS(=O)(=O)CCNCc1ccc(-c2ccc3ncnc(Nc4ccc(OCc5ccccc5)cc4)c3c2)o1
Completion: 4.25

Prompt: GET /values?readout=inhibition&item= CNC(=O)c1cncc(/C=C/c2ccccc2C)c1
Completion: 3.49

Prompt: State the recorded inhibition for this entry: O=C(O[C@H]1CN[C@H](C#Cc2cc3ncnc(Nc4ccc5c(cnn5Cc5ccccc5)c4)c3s2)C1)N1CCOCC1
Completion: -1.18

Prompt: // inhibition lookup, key: COc1c(C(N)=O)cc(-c2ccc(Cl)cc2)cc1-c1ccc(S(N)(=O)=O)cc1
Completion: 1.14

Prompt: I'd like to know its inhibition. The compound in question is CCS(=O)(=O)c1ccc(OC)c(Nc2ncc(-c3cccc(F)c3)o2)c1
Completion: 0.05

Prompt: Query: inhibition; subject: CN(c1ccc(NC(=O)NCCN2CCOCC2)cc1)c1ccnc(Nc2ccc(CS(C)(=O)=O)cc2)n1
Completion: 57.2

Prompt: Item CN(C)CCNC(=O)Nc1ccc(N(C)c2ccnc(Nc3ccc(CS(C)(=O)=O)cc3)n2)cc1 has what recorded inhibition?
Completion: 11.7

---

Each record here notes measured inhibition.
- ASSAYED_TARGET: Dual specificity protein kinase TTK (Homo sapiens) (UniProt P33981)
- Sequence (P33981 whole entry): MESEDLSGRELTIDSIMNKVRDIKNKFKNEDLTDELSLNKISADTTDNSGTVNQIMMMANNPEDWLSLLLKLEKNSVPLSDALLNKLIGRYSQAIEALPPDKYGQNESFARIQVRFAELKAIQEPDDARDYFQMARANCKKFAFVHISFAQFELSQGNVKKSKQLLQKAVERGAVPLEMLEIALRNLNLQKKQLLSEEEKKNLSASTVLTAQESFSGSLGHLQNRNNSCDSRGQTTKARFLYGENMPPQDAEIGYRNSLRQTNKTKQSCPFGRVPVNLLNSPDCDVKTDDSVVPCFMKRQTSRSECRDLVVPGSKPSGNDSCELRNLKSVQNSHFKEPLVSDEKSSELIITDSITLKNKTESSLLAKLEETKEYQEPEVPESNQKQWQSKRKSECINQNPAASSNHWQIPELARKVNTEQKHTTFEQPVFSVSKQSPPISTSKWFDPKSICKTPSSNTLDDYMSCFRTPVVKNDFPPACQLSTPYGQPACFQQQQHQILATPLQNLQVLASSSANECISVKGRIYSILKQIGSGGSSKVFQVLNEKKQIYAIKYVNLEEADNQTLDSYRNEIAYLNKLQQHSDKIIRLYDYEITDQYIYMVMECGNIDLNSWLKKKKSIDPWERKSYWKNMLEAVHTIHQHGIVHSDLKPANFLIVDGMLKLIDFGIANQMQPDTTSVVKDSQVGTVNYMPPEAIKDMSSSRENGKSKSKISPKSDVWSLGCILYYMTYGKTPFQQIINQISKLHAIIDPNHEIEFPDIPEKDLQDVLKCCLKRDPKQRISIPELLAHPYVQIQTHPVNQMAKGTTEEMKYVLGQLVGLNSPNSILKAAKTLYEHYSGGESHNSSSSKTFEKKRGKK
- CONDITION_INFO: at 0.1 µM
- Description: GSK_PKIS: TTK mean inhibition at 0.1 uM [Nanosyn]
The reply should contain only the number, in %.

Recorded inhibition, per entry:
MOLECULE: CC1=C(C(=O)Nc2ccc3[nH]ncc3c2)C(c2ccc(F)cc2)N=C(c2ccc(C(F)(F)F)nc2)N1 (stereo not drawn)
MEASURED_VALUE: 3.99

MOLECULE: CNC(=O)c1cncc(/C=C/c2ccccc2C)c1
MEASURED_VALUE: 8.61

MOLECULE: CS(=O)(=O)CCNCc1ccc(-c2ccc3ncnc(Nc4ccc(OCc5ccccc5)cc4)c3c2)o1
MEASURED_VALUE: 5.7

MOLECULE: COc1ccc(-c2nn3ncccc3c2-c2ccnc(Nc3ccc(F)c(F)c3)n2)cc1
MEASURED_VALUE: 15.1

Prompt: Lab note: need inhibition with Dual specificity protein kinase TTK (Homo sapiens) (UniProt P33981) for entry CCN1CCC(C(=O)Nc2n[nH]c3nnc(-c4cccc(F)c4F)cc23)CC1 , please look it up.
Completion: -0.14

Prompt: Tell me reported inhibition for CCn1c(-c2nonc2N)nc2cncc(C(=O)NCCNC)c21 , tested with Dual specificity protein kinase TTK (Homo sapiens) (UniProt P33981).
Completion: 9.43

Prompt: Form entry - test system: Dual specificity protein kinase TTK (Homo sapiens) (UniProt P33981); read-out: inhibition; molecule: CN(C)CCNC(=O)Nc1ccc(N(C)c2ccnc(Nc3ccc(CS(C)(=O)=O)cc3)n2)cc1
Completion: 6.19
